All figures here come from ChEMBL document CHEMBL4680251.

molecular target: Mitogen-activated protein kinase kinase kinase 5 (Homo sapiens); assay: Inhibition of ASK1 (unknown origin)
pIC50: −log10 of the molar value.
Kind request: treat 7 as inclusive, so pIC50 at 7 or higher is 1, anything lower is 0.

See these solved cases before continuing.
1. CC(C)n1cnnc1-c1cccc(NC(=O)Nc2ncc3[nH]cnc3n2)n1
1
2. C[C@H](CO)n1cnnc1-c1cccc(NC(=O)Nc2nccc3ccccc23)n1
1
3. CC(C)OC(=O)Nc1cccc(-c2nncn2C(C)C)n1
0
4. CC(C)n1cnnc1-c1cccc(NC(=O)N(C)c2ccc3ccccc3n2)n1
0
5. CC(C)n1cnnc1-c1cccc(NC(=O)Nc2ccccn2)n1
1

Next up:
Q. In plain terms: is recorded pIC50 at least 7 for CC(C)n1cnnc1-c1cccc(NC(=O)Nc2ccccc2)n1 ?
A. 0

----------
Biological target: Mitogen-activated protein kinase kinase kinase 5 (Homo sapiens)
Sequence (Q99683 whole entry): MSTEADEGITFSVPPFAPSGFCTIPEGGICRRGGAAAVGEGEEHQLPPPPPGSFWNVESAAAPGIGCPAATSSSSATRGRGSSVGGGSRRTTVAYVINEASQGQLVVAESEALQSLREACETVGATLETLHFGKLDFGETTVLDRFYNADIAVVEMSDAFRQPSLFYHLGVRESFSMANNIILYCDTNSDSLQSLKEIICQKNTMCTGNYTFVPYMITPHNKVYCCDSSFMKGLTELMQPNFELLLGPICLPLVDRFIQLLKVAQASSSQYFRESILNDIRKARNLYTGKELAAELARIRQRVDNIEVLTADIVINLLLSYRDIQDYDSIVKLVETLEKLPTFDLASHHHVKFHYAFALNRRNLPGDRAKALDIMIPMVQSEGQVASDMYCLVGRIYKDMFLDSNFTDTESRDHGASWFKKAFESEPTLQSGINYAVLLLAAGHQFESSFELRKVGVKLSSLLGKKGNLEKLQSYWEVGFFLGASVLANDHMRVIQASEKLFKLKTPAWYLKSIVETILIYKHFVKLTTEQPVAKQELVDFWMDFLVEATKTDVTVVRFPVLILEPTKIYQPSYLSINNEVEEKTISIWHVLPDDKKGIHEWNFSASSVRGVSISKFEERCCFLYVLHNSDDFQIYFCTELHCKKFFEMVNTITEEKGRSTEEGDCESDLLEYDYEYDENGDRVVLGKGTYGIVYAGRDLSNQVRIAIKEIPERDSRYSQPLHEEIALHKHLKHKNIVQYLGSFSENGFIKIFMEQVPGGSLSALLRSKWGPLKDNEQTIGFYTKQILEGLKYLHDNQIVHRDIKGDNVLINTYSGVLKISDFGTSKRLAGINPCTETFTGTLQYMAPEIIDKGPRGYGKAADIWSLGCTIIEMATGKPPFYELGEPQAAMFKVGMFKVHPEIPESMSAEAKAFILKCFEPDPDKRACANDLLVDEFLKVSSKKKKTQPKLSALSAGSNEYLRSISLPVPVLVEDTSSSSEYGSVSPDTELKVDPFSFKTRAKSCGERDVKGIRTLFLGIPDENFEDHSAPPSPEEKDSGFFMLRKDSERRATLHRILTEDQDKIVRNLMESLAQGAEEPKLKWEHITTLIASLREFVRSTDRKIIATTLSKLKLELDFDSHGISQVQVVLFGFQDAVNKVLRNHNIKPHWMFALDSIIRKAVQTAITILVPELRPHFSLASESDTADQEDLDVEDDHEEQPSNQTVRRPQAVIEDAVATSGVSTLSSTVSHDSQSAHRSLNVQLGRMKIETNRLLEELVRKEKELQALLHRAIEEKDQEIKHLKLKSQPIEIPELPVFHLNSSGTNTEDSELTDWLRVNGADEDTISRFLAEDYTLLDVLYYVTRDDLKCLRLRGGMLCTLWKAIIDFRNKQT
Assay: Inhibition of ASK1 (unknown origin)
Provide the recorded IC50 for the entries that follow.
One number for each entry, in µM.

Sample answers from the record:
1) CC(C)n1cnnc1-c1cccc(NC(=O)Nc2nn(C)c3ccccc23)n1
0.259
2) CC(C)n1cnnc1-c1cccc(NC(=O)Nc2cnn3ccccc23)n1
3.65
3) C[C@H](CO)n1cnnc1-c1cccc(NC(=O)Nc2cnc3ccccc3n2)n1
0.114

Quick one: give me IC50 for each item below, same order please.
1. CC(C)n1cnnc1-c1cccc(NC(=O)Nc2ccncc2)n1
2. C[C@H](CO)n1cnnc1-c1cccc(NC(=O)Nc2cc3ccccn3n2)n1
3. CCc1cc(NC(=O)Nc2cccc(-c3nncn3C(C)C)n2)[nH]n1
4. CC(C)n1cnnc1-c1cccc(NC(=O)Nc2cnccn2)n1
5. Cc1cc(NC(=O)Nc2cccc(-c3nncn3C(C)C)n2)[nH]n1
6. Cc1cc(NC(=O)Nc2cccc(-c3nncn3C(C)C)n2)n(C)n1
7. CC(C)n1cnnc1-c1cccc(NC(=O)Nc2nccc3ccccc23)n1
8. CC(C)n1cnnc1-c1cccc(NC(=O)OCc2ccccc2)n1

A.
1. 0.337
2. 0.0338
3. 0.153
4. 0.0903
5. 0.142
6. 4.14
7. 0.0485
8. 1.52

----------
molecular target: Mitogen-activated protein kinase kinase kinase 5 (Homo sapiens); experiment: Inhibition of ASK1 (unknown origin)
Kindly apply the following: true (1) if IC50 is less than 200 nM, false (0) in every other case.

See these solved cases before continuing.
1) CC(C)n1cnnc1-c1cccc(NC(=O)Nc2cc3ccccc3cn2)n1
true (1)
2) CC(C)n1cnnc1-c1cccc(NC(=O)Nc2ccc(-c3cnn(C)c3)cc2)n1
false (0)
3) CC(C)n1cnnc1-c1cccc(NC(=O)Nc2ccnc3ccccc23)n1
false (0)

Q. Strictly below 200 nM: is that where IC50 of CC(C)n1cnnc1-c1cccc(NC(=O)NCc2ccccc2)n1 sits?
A. false (0)

Q. Strictly below 200 nM: is that where IC50 of CC(C)n1cnnc1-c1cccc(NC(=O)Oc2ccccc2)n1 sits?
A. false (0)

Q. Strictly below 200 nM: is that where IC50 of CC(C)n1cnnc1-c1cccc(NC(=O)Nc2cc3ccccn3n2)n1 sits?
A. true (1)

----------
Provide the recorded IC50 for the entries that follow.
Target: Mitogen-activated protein kinase kinase kinase 7 (Homo sapiens)
Sequence (O43318 whole entry): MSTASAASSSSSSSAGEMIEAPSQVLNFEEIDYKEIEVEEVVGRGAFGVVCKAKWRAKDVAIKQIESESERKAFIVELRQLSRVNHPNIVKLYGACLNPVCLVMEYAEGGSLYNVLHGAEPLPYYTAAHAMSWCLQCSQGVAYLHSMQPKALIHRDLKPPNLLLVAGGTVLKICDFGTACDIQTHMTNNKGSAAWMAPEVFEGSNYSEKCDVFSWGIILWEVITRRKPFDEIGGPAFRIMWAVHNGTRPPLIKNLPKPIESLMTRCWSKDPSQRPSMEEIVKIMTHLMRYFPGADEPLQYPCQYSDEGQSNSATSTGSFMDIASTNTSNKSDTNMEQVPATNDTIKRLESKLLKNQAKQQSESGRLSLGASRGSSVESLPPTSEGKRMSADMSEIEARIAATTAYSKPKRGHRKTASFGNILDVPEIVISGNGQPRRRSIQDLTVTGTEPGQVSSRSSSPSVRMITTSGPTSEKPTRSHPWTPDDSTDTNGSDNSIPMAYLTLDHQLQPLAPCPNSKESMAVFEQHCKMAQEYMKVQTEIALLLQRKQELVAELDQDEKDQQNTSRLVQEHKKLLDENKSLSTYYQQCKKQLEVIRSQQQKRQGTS
Experiment: Inhibition of TAK1 (unknown origin)

1. C[C@H](CO)n1cnnc1-c1cccc(NC(=O)Nc2cnc3ccccc3n2)n1
> 10000 nM

Quick one: give me IC50 for each item below, same order please.
1. C[C@H](CO)n1cnnc1-c1cccc(NC(=O)Nc2ncc3ccccc3n2)n1
2. CC(C)n1cnnc1-c1cccc(NC(=O)Nc2ccc(-c3ccn(C)n3)cn2)n1
3. CC(C)n1cnnc1-c1cccc(NC(=O)Nc2cc3ccccc3cn2)n1
4. CC(C)n1cnnc1-c1cccc(NC(=O)Nc2ncc3[nH]cnc3n2)n1
5. CC(C)n1cnnc1-c1cccc(NC(=O)Nc2ccccn2)n1
6. CC(C)n1cnnc1-c1cccc(NC(=O)Nc2ncnc3ccccc23)n1
7. CC(C)n1cnnc1-c1cccc(NC(=O)Nc2cnc3ccccc3n2)n1
8. C[C@H](CO)n1cnnc1-c1cccc(NC(=O)Nc2nccc3ccccc23)n1

A.
1: 5770 nM; 2: 2220 nM; 3: 1360 nM; 4: 1210 nM; 5: 734 nM; 6: 421 nM; 7: 6800 nM; 8: 63.7 nM

----------
molecular target: CDK2/Cyclin A2 (Homo sapiens); experiment: Inhibition of full length human recombinant CDK2/Cyclin A using histone H1 as substrate incubated for 40 mins in presence of [gamma-33ATP] by radiometric scintillation counting analysis
measured_endpoint: IC50
// unit must come after the numeric part

Q. // IC50 lookup, key: C[C@H](CO)n1cnnc1-c1cccc(NC(=O)Nc2cc3ccccn3n2)n1
A. 352 nM

----------
Provide the recorded IC50 for the entries that follow.
target: Mitogen-activated protein kinase kinase kinase 6 (Homo sapiens, UniProt O95382); assay: Inhibition of ASK2 (unknown origin)
Sequence (O95382 whole entry): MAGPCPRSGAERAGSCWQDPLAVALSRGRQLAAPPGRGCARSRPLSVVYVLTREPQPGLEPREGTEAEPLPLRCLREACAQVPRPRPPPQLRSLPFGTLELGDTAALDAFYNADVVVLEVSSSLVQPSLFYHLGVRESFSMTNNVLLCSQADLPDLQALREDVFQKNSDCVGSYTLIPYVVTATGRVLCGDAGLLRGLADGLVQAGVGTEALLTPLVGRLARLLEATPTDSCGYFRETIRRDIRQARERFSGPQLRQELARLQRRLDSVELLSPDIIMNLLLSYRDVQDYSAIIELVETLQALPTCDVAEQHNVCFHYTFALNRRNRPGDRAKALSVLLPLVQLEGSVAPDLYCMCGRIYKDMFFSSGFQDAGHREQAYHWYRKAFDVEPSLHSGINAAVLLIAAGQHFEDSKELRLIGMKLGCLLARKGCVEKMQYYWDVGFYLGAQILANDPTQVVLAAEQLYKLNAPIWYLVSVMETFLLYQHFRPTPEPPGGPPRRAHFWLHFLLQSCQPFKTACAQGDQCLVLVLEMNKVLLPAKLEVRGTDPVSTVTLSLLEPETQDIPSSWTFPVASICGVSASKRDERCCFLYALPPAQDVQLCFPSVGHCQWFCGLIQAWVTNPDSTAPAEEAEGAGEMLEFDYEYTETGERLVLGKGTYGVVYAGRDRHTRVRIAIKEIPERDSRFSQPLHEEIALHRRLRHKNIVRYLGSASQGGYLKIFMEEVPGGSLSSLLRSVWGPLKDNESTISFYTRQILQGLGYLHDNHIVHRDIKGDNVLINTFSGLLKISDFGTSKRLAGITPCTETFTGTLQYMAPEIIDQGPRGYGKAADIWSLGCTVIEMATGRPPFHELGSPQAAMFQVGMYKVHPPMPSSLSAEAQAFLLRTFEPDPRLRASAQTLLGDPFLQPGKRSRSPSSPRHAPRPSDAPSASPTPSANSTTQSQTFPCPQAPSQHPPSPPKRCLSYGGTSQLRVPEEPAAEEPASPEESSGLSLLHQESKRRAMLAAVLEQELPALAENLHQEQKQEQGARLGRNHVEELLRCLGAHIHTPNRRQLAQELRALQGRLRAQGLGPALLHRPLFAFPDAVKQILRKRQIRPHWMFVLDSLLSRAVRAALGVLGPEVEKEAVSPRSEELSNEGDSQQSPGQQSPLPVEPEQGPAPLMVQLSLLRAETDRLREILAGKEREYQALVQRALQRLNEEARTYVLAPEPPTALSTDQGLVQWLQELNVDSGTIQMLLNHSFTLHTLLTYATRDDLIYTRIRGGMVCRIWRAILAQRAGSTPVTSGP
Give bare numbers, in nM.

1. CC(C)n1cnnc1-c1cccc(NC(=O)Nc2cnc3ccccc3n2)n1
4860
2. CC(C)n1cnnc1-c1cccc(NC(=O)Nc2ncc3ccccc3n2)n1
2910
3. C[C@H](CO)n1cnnc1-c1cccc(NC(=O)Nc2cc3ccccn3n2)n1
5290
4. CC(C)n1cnnc1-c1cccc(NC(=O)Nc2ccc3ccccc3n2)n1
2340

Q. // IC50 lookup, key: CC(C)n1cnnc1-c1cccc(NC(=O)Nc2cc3ccccc3cn2)n1
A. 1590
